# ASSAY PROTOCOL: Kinetic solubility of the compound in buffer at pH 7.4 after 16 to 19 hrs by UV absorbance assay
# Format: physicochemical
# DETAILS: read-out: Kinetic_solubility
log10(solubility kinetic) values by entry
Quick note: numbers are log10 of solubility kinetic, with µg/mL as the unit.

Before answering, review these 6 worked examples.
COMPOUND | VALUE REPORTED
Cc1cc(-c2nnc(-c3cc(F)c(O[C@H]4COC[C@H]4O)cc3Cl)s2)cc(NC(C)C)n1 (racemic) | -0.70
Cc1cc(-c2nc(-c3cnc(OC[C@H]4COC(=O)N4)cn3)no2)cc(CC(C)C)n1 | 1.43
Cc1nc(CC(C)C)cc(-c2nc(-c3cc(F)c(O[C@@H]4CCC(=O)N(C)C4)cc3Cl)no2)n1 | 1.41
CC(=O)N1CCOC[C@@H]1COc1cc(Cl)c(-c2nnc(-c3cc(C)nc(NC(C)C)c3)s2)cc1F | 0.00
Cc1cc(-c2nnc(-c3cc(F)c(OC[C@H]4CCC(=O)N4)cc3Cl)s2)cc(NC(C)C)n1 | -0.05
Cc1cc(-c2nc(-c3cc(C)c(OC[C@H]4COC(=O)N4)cn3)no2)cc(CC(C)C)n1 | 1.36

Prompt line: Which log10(solubility kinetic) value is on record for Cc1cc(-c2nc(-c3cnc(OC[C@H]4COC(=O)N4)cn3)no2)cc(NC(C)C)n1 ?
Response line: 1.40

Prompt line: Which log10(solubility kinetic) value is on record for Cc1cc(-c2nnc(-c3cc(F)c(OC[C@H]4COC(=O)N4)cc3Cl)s2)cc(NC(C)C)n1 ?
Response line: -0.52

Prompt line: Which log10(solubility kinetic) value is on record for Cc1cc(-c2nc(-c3cnc(OC[C@H]4COC(=O)N4)c(C)n3)no2)cc(NC(C)C)n1 ?
Response line: 0.30

Prompt line: Which log10(solubility kinetic) value is on record for Cc1cc(-c2nc(-c3cc(F)c(OC[C@H]4COC(=O)N4)cc3Cl)no2)cc(NC(C)C)n1 ?
Response line: -1.00

Prompt line: Which log10(solubility kinetic) value is on record for Cc1cc(-c2nc(-c3ccc(OC[C@H]4COC(=O)N4)nc3)no2)cc(NC(C)C)n1 ?
Response line: -0.52

Prompt line: Which log10(solubility kinetic) value is on record for Cc1cc(-c2nc(-c3ccc(OC[C@H]4COC(=O)N4)cc3)no2)cc(NC(C)C)n1 ?
Response line: -1.00

Prompt line: Which log10(solubility kinetic) value is on record for Cc1cc(-c2nnc(-c3cc(F)c(OC[C@H]4OCC[C@@H]4O)cc3Cl)s2)cc(NC(C)C)n1 ?
Response line: -0.05

----------
solubility thermodynamic at 24 h values by entry
# ASSAY PROTOCOL: Equilibrium solubility of the compound in citric acid monohydrate/Na2HPO4 dihydrate buffer at pH 6.8 after 24 hrs by RP-HPLC analysis
# Format: physicochemical
# unit: µg/mL | format: bare number

TEST SMILES | solubility thermodynamic at 24 h (µg/mL)
Cc1cc(-c2nc(-c3ccc(O[C@H]4CCC(=O)NC4)c(C)n3)no2)cc(NC(C)C)n1 | 12
Cc1cc(-c2nc(-c3cc(C)c(OC[C@@H]4CCC(=O)N4)c(C)n3)no2)cc(CC(C)C)n1 | 21
Cc1nc(CC(C)C)cc(-c2nc(-c3ccc(O[C@@H]4CCC(=O)NC4)c(F)c3)no2)n1 | 27

Could you now consider this next molecule?
Prompt line: Which solubility thermodynamic at 24 h value is on record for Cc1nc(CC(C)C)cc(-c2nc(-c3cc(F)c(O[C@@H]4CCC(=O)N(C)C4)cc3Cl)no2)n1 ?
Response line: 10
